# Assay Overview: Quantitative High-Throughput drug screen in 47 multiple myeloma cell lines against the NCATS MIPE library collection: OPM2_DSMZ cell viability assay (AID 1919872); note: nearly all actives have a fitted effect of over 30% in size
# Assay Setup: OPM2 myeloma viability, CellTiter-Glo ATP luminescence, 48 h; series mostly up to 45.8 µM
Results filed as inconclusive are left out. Activity calls are given as the source filed them. Calls come from the whole dose curve; as a rule, active = well fitted cell-killing curve with a large enough effect; inconclusive = small, poorly fitted or top-dose-only effect, or effect the other way; inactive = no such curve, though single readings can be large or run the other way.
Classes to choose from: 1 for active, -1 for inactive

As a guide, the following entries are already answered.
{"Compound": "CCn1cc(-c2ccnc3[nH]c(-c4cccc(CN(C)C)c4)cc23)c(-c2ccc(NC(=O)N(C)C)cc2)n1", "Qualitative Label": 1}
{"Compound": "Cc1coc2c1C(=O)C(=O)c1c-2ccc2c1CCCC2(C)C", "Qualitative Label": 1}
{"Compound": "Cc1cc(CN2CCN(c3c(Br)cnc4nc(-c5ccc(N6CCN(C)CC6)cc5)[nH]c34)CC2)no1", "Qualitative Label": 1}
{"Compound": "COc1ccc(-n2nc(C(N)=O)c3c2C(=O)N(c2ccc(N4CCCCC4=O)cc2)CC3)cc1", "Qualitative Label": -1}
{"Compound": "C=CC(=O)Nc1cccc(Oc2nc(Nc3ccc(N4CCN(C)CC4)cc3)ncc2Cl)c1", "Qualitative Label": 1}
{"Compound": "O=C(NCCCNc1nc(Nc2cccc(NC(=O)N3CCCC3)c2)ncc1I)c1cccs1", "Qualitative Label": 1}

In: Which outcome did this test record for the compound CC1(O)CC(c2nc(-c3ccc4ccc(-c5ccccc5)nc4c3)c3c(N)nccn23)C1 (configuration not stated) ?
Out: 1

In: Hello, I am checking results. What call was entered for COc1cc(=C2C=c3ccccc3=N2)[nH]c1=Cc1[nH]c(C)cc1C ?
Out: 1

Attribution: PubChem BioAssay (NCATS)
